- Tested on: P388
- assay_remarks: In vitro antitumor activity against P388 (murine leukemia) cells.
- Assay type: functional, cell-based
- details: Mus musculus
Just a reminder that ties go to n: only IC50 strictly below 3 ng/mL counts as y.

input: Hi there! Is IC50 for "CC[C@@]1(O)C(=O)OCc2c1cc1n(c2=O)Cc2c-1nc1ccc(O)c3c1c2CCS3" below 3 ng/mL, do you know?
output: n

input: Identify whether the molecule "CC[C@@]1(O)C(=O)OCc2c1cc1n(c2=O)Cc2c-1nc1cc(F)c(F)c3c1c2CCC3" records IC50 below 3 ng/mL.
output: y

input: Is the reported IC50 for "CC[C@@]1(O)C(=O)OCc2c1cc1n(c2=O)Cc2c-1nc1cc(F)cc3c1c2CCC3" strictly below 3 ng/mL?
output: y

input: Please check: IC50 for "CC[C@@]1(O)C(=O)OCc2c1cc1n(c2=O)Cc2c-1nc1cc(N)c(O)c3c1c2CCC3" , strictly under 3 ng/mL or not?
output: n

input: hey, is IC50 for "CC[C@@]1(O)C(=O)OCc2c1cc1n(c2=O)Cc2c-1nc1ccc(OC)c3c1c2CCN3" lower than 3 ng/mL or not?
output: n

Next:
input: Just wondering, is IC50 of CC[C@@]1(O)C(=O)OCc2c1cc1n(c2=O)Cc2c-1nc1cc(F)c(F)c3c1c2CCC3O (stereo partly specified) below 3 ng/mL?
output: n
